Listed next: entries and their corresponding logP.

>  <line notation>
CCOC(=O)c1c[nH]c2ccccc12

>  <logP>
3.04

$$$$
>  <line notation>
Cc1cccc2cc[nH]c12

>  <logP>
2.56

$$$$
>  <line notation>
Clc1cccs1

>  <logP>
2.54

$$$$
>  <line notation>
CN(C)C(=O)c1ccco1

>  <logP>
0.41

$$$$
>  <line notation>
CC(=O)Oc1c[nH]c2ccccc12

>  <logP>
2.01

$$$$
>  <line notation>
COc1ccco1

>  <logP>
1.44

$$$$
>  <line notation>
NC(=O)c1ccc2[nH]ccc2c1

>  <logP>
0.87

$$$$
>  <line notation>
O=Cc1ccoc1

>  <logP>
0.51

$$$$
>  <line notation>
CC(=O)C=Cc1ccco1

>  <logP>
1.35

$$$$
>  <line notation>
O=[N+]([O-])c1cccc2cc[nH]c12

>  <logP>
2.63

$$$$
>  <line notation>
O=[N+]([O-])c1ccc2sccc2c1

>  <logP>
2.92

$$$$
>  <line notation>
O=[N+]([O-])/C=C/c1cccs1

>  <logP>
1.96

$$$$
>  <line notation>
CCOc1ccc2cc[nH]c2c1

>  <logP>
2.53

$$$$
>  <line notation>
Clc1cccc2cc[nH]c12

>  <logP>
3.25

$$$$
>  <line notation>
N#Cc1cccc2[nH]ccc12

>  <logP>
2.46

$$$$
>  <line notation>
Brc1ccoc1

>  <logP>
2.18

$$$$
>  <line notation>
O=CNc1ccc2[nH]ccc2c1

>  <logP>
1.07

$$$$
>  <line notation>
COC(=O)c1ccc2[nH]ccc2c1

>  <logP>
2.58

$$$$
